List of logP values.
Number only, no unit.

{"compound": "CN=C=S", "logP": 0.94}

Quote logP reported for `S=C=Nc1cccc(Cl)c1` please. 3.36

Look up and report measured logP for this entry: `S=C=Nc1ccc(I)cc1` 4.22

Kindly indicate its recorded logP. Item: `CCCCN=C=S` 2.92

Could you please provide reported logP for `N#Cc1ccc(N=C=S)cc1` ? Thanks! 2.65

For the compound `Oc1cccc(N=C=S)c1` , report logP. 3.23

Determine its reported logP: `CN(C)c1ccc(N=C=S)cc1` 3.96

Indicate its recorded logP; the compound in question is `O=C(O)c1cccc(N=C=S)c1` 2.4

Please supply the value of reported logP for the item CCC(C)N=C=S (centres undefined) 2.81

---

logP reference
Lab note: write the figure by itself, no unit.

{"smiles_string": "N#Cc1cccc(N=C=S)c1", "value_observed": 3.13}

Now let's try a different one.
Give reported logP value for `S=C=Nc1ccc(Cl)cc1` 3.91

---

Listed next: entries and their corresponding logP.
Lab note: jot down the number only; don't add units.

For the compound `S=C=Nc1cccc(Br)c1` , give its measured logP value. 4.12

Assign logP to the following record: `COc1cccc(N=C=S)c1` 3.68

---

Listing: logP of selected compounds
# output: bare number, no unit

Below, each entry is followed by its recorded logP result.
{"smiles_string": "CC(C)CN=C=S", "value_observed": 2.82}
{"smiles_string": "O=C(O)c1ccc(N=C=S)cc1", "value_observed": 2.44}
{"smiles_string": "O=[N+]([O-])c1ccc(N=C=S)cc1", "value_observed": 3.55}

Give me measured logP, please, for this compound: `Cc1ccc(N=C=S)cc1` 3.9

Determine from records and report logP for `COc1ccc(N=C=S)cc1` 3.58
